- assay text: Inhibition of HPUra/HPiCyt-resistant Bacillus subtilis DNA polymerase-3/azp-12 mutant using DNAase 1-treated DNA as template assessed as inhibition of dGTP truncated DNA synthesis by measuring incorporation of [3H]-TMP in presence of dithiothreitol
readout kind: Ki

{"entry smiles": "O=c1cc(NNc2ccc(O)cc2)[nH]c(=O)[nH]1", "data value": "20 µM"}

Record summary for `Nc1ccc(NNc2cc(=O)[nH]c(=O)[nH]2)cc1` : reported Ki = 76.4 µM

The measured Ki associated with `Cc1ccc(NNc2cc(=O)[nH]c(=O)[nH]2)cc1` reads 0.4 µM

Field Ki (entry `O=c1cc(NNc2ccccc2)[nH]c(=O)[nH]1` ) reads 2.1 µM

====

- Test system: Bacillus subtilis
- assay text: Inhibition of wild type Bacillus subtilis DNA polymerase-3 using DNAase 1-treated DNA as template assessed as inhibition of dGTP truncated DNA synthesis by measuring incorporation of [3H]-TMP at 20 uM in presence of dithiothreitol relative to control
readout kind: inhibition
// unit must come after the numeric part

Look over these answered cases.
{"entry smiles": "O=c1cc(NNc2ccc(Br)cc2)[nH]c(=O)[nH]1", "data value": "82%"}
{"entry smiles": "O=c1cc(NNc2ccc(F)cc2)[nH]c(=O)[nH]1", "data value": "82%"}
{"entry smiles": "Cc1cccc(NNc2cc(=O)[nH]c(=O)[nH]2)c1", "data value": "80%"}

Now, please, on to the next compound.
// inhibition value for `O=c1cc(NNc2ccc(Cl)cc2)[nH]c(=O)[nH]1` : 91%

====

- assay text: Inhibition of wild type Bacillus subtilis DNA polymerase-3 using DNAase 1-treated DNA as template assessed as inhibition of dGTP truncated DNA synthesis by measuring incorporation of [3H]-TMP in presence of dithiothreitol
readout kind: Ki (nM)
Express your answer in nM, writing the number without its unit.

Worked set:
{"entry smiles": "O=c1cc(NNc2ccccc2)[nH]c(=O)[nH]1", "endpoint unit": "nM", "Ki": 1400}
{"entry smiles": "O=c1cc(NNc2ccccc2F)[nH]c(=O)[nH]1", "endpoint unit": "nM", "Ki": 7200}

Consider `O=c1cc(NNc2ccc(Br)cc2)[nH]c(=O)[nH]1` . Its measured Ki is 700

In plain terms, `Cc1ccc(NNc2cc(=O)[nH]c(=O)[nH]2)cc1C` has a documented Ki of 1400

Record summary for `O=c1cc(NNc2cccc(F)c2)[nH]c(=O)[nH]1` : reported Ki = 700

The value of Ki measured for the compound `O=c1cc(NNc2cccc(Cl)c2)[nH]c(=O)[nH]1` turned out to be 1100

Ki reported for this compound `O=c1cc(NNc2ccc(Cl)cc2)[nH]c(=O)[nH]1` : 900

Note to self: Ki recorded for `Cc1ccc(NNc2cc(=O)[nH]c(=O)[nH]2)cc1Cl` was 800
